# Tested on: IGROV-1
# method: NCI tumour cell line growth inhibition, 48 h
Active and inactive are the calls of the source. No stated cut-off is given here; in the data, active = GI50 up to about 1.1 µM and inactive = higher.
measured.attribute: GI50

>>> df
                                smiles_repr       value_measured
0  CCOC(=O)Cn1c(=O)[nH]c(=O)c2c1ncn2Cc1ccccc1  > 100 µM (inactive)
1  CCCC(=O)OC1=C(c2ccccc2)Sc2ccccc2-n2cccc21   > 10 µM (inactive)

Below: the item to evaluate.
# get_value(readout= GI50, system= IGROV-1) for Nc1ccc(S(=O)(=O)c2ccc(NC(=O)c3cccnc3)cc2)cc1
> 100 µM (inactive)

----------
# Tested on: NCI-H522
# method: NCI tumour cell line growth inhibition, 48 h
Activity calls are given as the source filed them. No stated cut-off is given here; in the data, active = GI50 up to about 1.1 µM and inactive = higher.
Pick one: true (1) for active, false (0) for inactive

Known results for molecules:
molecule	qualitative.label
Cn1nc2ccc3nccc(NCCNCCCl)c3c2n1	false (0)
C/C(=N\Nc1nc2cc(C)ccc2s1)c1ccccn1	true (1)
OC1C2CCCCN2C[C@@H](O)[C@H]1O (stereo partly drawn)	false (0)
CNC(=O)OCc1nc([S+](C)[O-])n(C)c1COC(=O)NC (stereo not drawn)	false (0)
Cc1cc(O)c(C(O)c2ccccn2)cc1O (stereo not drawn)	false (0)
Cc1c(N)nc(C(CC(N)=O)NCC(N)C(N)=O)nc1C(=O)NC(C(=O)NC(C)C(O)C(C)C(=O)NC(C(=O)NCCc1nc(-c2nc(C(=O)NCCCNCCCCN)cs2)cs1)C(C)O)C(OC1OC(CO)C(O)C(O)C1OC1OC(CO)C(O)C(OC(N)=O)C1O)c1c[nH]cn1 (stereo not drawn)	false (0)
O=[N+]([O-])c1ccc2sc(/C=N/c3ccccn3)cc2c1	false (0)
CC1=C(C(=O)OC(C)C)C(c2cccc([N+](=O)[O-])c2)C(C(=O)OC(CO[N+](=O)[O-])CO[N+](=O)[O-])=C(C)N1 (stereo not drawn)	false (0)

Could you kindly confirm the outcome this assay logged for O=C1Nc2cc(Cl)ccc2C(=O)N2CCC[C@@H]12 ?
false (0)

Could you kindly confirm the outcome this assay logged for Nc1ccc(S(=O)(=O)c2ccc(NC(=O)c3cccnc3)cc2)cc1 ?
false (0)

Could you kindly confirm the outcome this assay logged for S=P(C1CCCCC1)(C1CCCCC1)C(c1cccnc1)N1CCCC1 (stereo not drawn) ?
false (0)

Could you kindly confirm the outcome this assay logged for CC(O)c1c2c(cc3c1CC1(C3)Cc3cc4c(c(C(C)O)c3C1)CCC4)CCC2 (stereo not drawn) ?
false (0)

Could you kindly confirm the outcome this assay logged for Cc1nc(-c2cccnc2)sc1C(=O)/C=C/c1cccc([N+](=O)[O-])c1 ?
false (0)

----------
# System: NCI-H460
# method: NCI tumour cell line growth inhibition, 48 h
Calls of active or inactive are those of the source. Rule as the data show it: active = GI50 up to about 1.1 µM and inactive = higher.
Reported GI50 values follow for various molecules

In [3]: df
Out[3]:
                                smiles_repr       value_measured
0            N#CCc1nc(-c2cc3ccccc3oc2=O)cs1   75.2 µM (inactive)
1  Cc1cccc(-n2c(=S)[nH]c3c(sc(=O)n3-c3ccccc3C)c2=O)c1  > 100 µM (inactive)
2  CN(C)c1ccc(C=C2C(=O)NC(=S)NC2=O)c2ccccc12  > 100 µM (inactive)
3  Cc1ccc(/N=N/c2c(C)nn(C(=O)CC(=O)Nc3ccccc3)c2C)cc1C  > 100 µM (inactive)
4      NS(=O)(=O)c1ccc(NC2(C(=O)O)CCCC2)cc1  > 100 µM (inactive)

Entry N=C(N)NS(=O)(=O)c1ccc(NC(=O)c2cccc3cc4ccccc4nc23)cc1 : reported GI50 = ?
> 100 µM (inactive)

Where these numbers come from: ChEMBL document CHEMBL1201862
